systemTested: Aldehyde dehydrogenase 1A1 (Homo sapiens)
methodSummary: qHTS Assay for Inhibitors of Aldehyde Dehydrogenase 1 (ALDH1A1)
particulars: Purified ALDH1A1, NADH fluorescence, propionaldehyde substrate; series mostly up to 75.3 µM
Screen size: about 220,000 compounds; about 16,000 (7.3%) were called active. About 25% were inconclusive and are not listed. Calls follow the shape of the dose curve; as a rule, active = well fitted inhibition curve with a large enough effect (not every such curve was filed as active); inconclusive = small, poorly fitted or top-dose-only effect, or another doubt; inactive = no such curve, though single readings can be large or run the other way. Only a selection was taken, and actives are over-represented in it overall.
Possible outcomes: active, inactive

>>> assignedlabel("CCOC(=O)c1sc(NC(=O)CSc2nnc(-c3ccco3)o2)c(C(=O)OCC)c1C")
"inactive"
>>> assignedlabel("Cn1cnc([N+](=O)[O-])c1Sc1n[nH]c(N)n1")
"inactive"
>>> assignedlabel("COC(=O)/C=C\\C(=O)Nc1cccc([N+](=O)[O-])c1")
"active"
>>> assignedlabel("CCOC(=O)c1cc(C)nc(S(C)(=O)=O)c1C#N")
"inactive"
>>> assignedlabel("CCOC(=O)c1sc(NC(=O)CCN2CCOCC2)c(C(=O)OCC)c1C")
"active"
>>> assignedlabel("COCCn1c(C)cc(C(=O)CSc2ncnc3sc4c(c23)CCC4)c1C")
"inactive"
>>> assignedlabel("CCOC(=O)C1CCCN(C(=O)CN(c2ccc(OC)cc2)S(=O)(=O)c2c(C)noc2C)C1 (configuration not stated)")
"inactive"
